- test_system: T1, recombinant MST1R-Fc fusion protein (containing 25-571 amino acid sequence of human MST1R, R&D) (human, UniProt Q04912 25-571)
- T1 construct: Bought from R&D systems; also called immobilized recombinant human MST1R; not shown: Fc part of the bought fusion protein (R&D systems)
- T1 chain: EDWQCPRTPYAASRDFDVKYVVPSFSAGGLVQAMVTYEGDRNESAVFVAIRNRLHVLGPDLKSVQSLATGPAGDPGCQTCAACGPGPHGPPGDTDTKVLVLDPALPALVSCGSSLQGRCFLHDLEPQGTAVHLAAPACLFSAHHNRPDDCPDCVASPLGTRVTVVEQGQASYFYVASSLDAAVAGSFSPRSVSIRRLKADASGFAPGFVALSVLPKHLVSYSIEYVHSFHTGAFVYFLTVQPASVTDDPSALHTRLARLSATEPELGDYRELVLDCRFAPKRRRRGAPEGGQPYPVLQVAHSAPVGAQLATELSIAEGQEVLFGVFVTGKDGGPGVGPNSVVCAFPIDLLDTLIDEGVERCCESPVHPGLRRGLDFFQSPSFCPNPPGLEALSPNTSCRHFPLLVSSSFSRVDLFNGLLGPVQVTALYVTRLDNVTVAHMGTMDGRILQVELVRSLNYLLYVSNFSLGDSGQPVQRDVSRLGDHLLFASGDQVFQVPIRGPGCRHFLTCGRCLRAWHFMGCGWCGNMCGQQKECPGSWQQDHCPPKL
- assay_name: SPR (Biacore 3000), Fab over directly immobilized MST1R-Fc
parameter: Kd (nM)
Please state the figure in nM; there is no need to write the unit.

Solved cases below.
MOR07923 Fab (Fab, V domains shown, carries two C-terminal tags (FLAG and Strep-tag II); also called Fab MOR07923) VH: QVQLVESGGGLVQPGGSLRLSCAASGFTFNSYSMSWVRQAPGKGLEWVSYISSRSSTTYYADSVKGRFTISRDNSKNTLYLQMNSLRAEDTAVYYCARGYFHGMDYWGQGTLVTVSS VL: DIVLTQSPATLSLSPGERATLSCRASQSVSFDYLGWYQQKPGQAPRLLIYGASNRATGVPARFSGSGSGTDFTLTISSLEPEDFATYYCFQYLIVPFTFGQGTKVEIKR: 0.07
MOR07692 Fab (Fab, V domains shown, carries two C-terminal tags (FLAG and Strep-tag II); also called Fab MOR07692) VH: QVQLVESGGGLVQPGGSLRLSCAASGFTFNSYSMSWVRQAPGKGLEWVSYISSRSSTTYYADSVKGRFTISRDNSKNTLYLQMNSLRAEDTAVYYCARGYFHGMDYWGQGTLVTVSS VL: DIVLTQSPATLSLSPGERATLSCRASQSVSFDYLGWYQQKPGQAPRLLIYGASNRATGVPARFSGSGSGTDFTLTISSLEPEDFATYYCQQYYNMPYTFGQGTKVEIKR: 0.8

// below: Kd requested for another binder
Reported Kd for MOR07925 Fab (Fab, V domains shown, carries two C-terminal tags (FLAG and Strep-tag II); also called Fab MOR07925) VH: QVQLVESGGGLVQPGGSLRLSCAASGFTFNSYSMSWVRQAPGKGLEWVSYISSRSSTTYYADSVKGRFTISRDNSKNTLYLQMNSLRAEDTAVYYCARGYFHGMDYWGQGTLVTVSS VL: DIVLTQSPATLSLSPGERATLSCRASQSVSFDYLGWYQQKPGQAPRLLIYGASNRATGVPARFSGSGSGTDFTLTISSLEPEDFATYYCLQYFNPPHTFGQGTKVEIKR : what is it?
0.02
